- Tested on: Tobacco mosaic virus
- method_summary: Antiviral activity against Tobacco mosaic virus (TMV) pre-treated with 125 ug/mL compound for 30 min followed by inoculation on left side of Nicotiana tabacum leaves assessed as virus inactivation effect measured 3 to 4 days post viral infection
- Type: functional
readout_label: Activity (%)
Your answer should be a plain number; it is taken to be in %.

Previously resolved entries follow.
• CCOP(=O)(OCC)C(NC(=O)c1ccc(F)cc1)c1ccccc1 (centres undefined) = 76.1
• CCCOP(=O)(OCCC)C(NC(=O)c1cccc(F)c1)c1ccccc1 (centres undefined) = 46
• CCOP(=O)(OCC)C(NC(=O)/C=C/c1ccccc1)c1ccccc1 (centres undefined) = 61.2

# ---- query compound ----
**Query** # value lookup — system Tobacco mosaic virus, readout Activity, item CCOP(=O)(OCC)C(NC(=O)c1ccccc1Cl)c1ccccc1 (centres undefined)
**Result** 60.9

====

- System: Tobacco mosaic virus
- method_summary: Antiviral activity against Tobacco mosaic virus (TMV) inoculated on whole Nicotiana tabacum leaves followed by smearing with 125 ug/mL compound solution on left side of leaves assessed as viral infection curative effect measured 3 to 4 days post viral infection
- Assay type: functional
# Activity values compiled below
Number in %, nothing else.

Below are worked cases with known answers.
* CCOP(=O)(OCC)C(NC(=O)c1ccccc1F)c1ccccc1 (configuration not stated) | 34
* CCCOP(=O)(OCCC)C(NC(=O)c1cccc(F)c1)c1ccccc1 (configuration not stated) | 12.9

**Query** Value lookup for Activity; key = CNCC(=O)N[C@@H](CO)C(=O)N[C@H]1[C@H](O)[C@@H](O)[C@H](n2ccc(N)nc2=O)O[C@@H]1C(N)=O
**Result** 40.9

**Query** Request the reported Activity associated with CCCOP(=O)(OCCC)C(NC(=O)c1ccccc1)c1ccccc1 (configuration not stated)
**Result** 14

**Query** Recorded Activity for CCCOP(=O)(OCCC)C(NC(=O)c1ccccc1C(F)(F)F)c1ccccc1 (configuration not stated) , please?
**Result** 31.6

**Query** Look up Activity for this compound: CCCOP(=O)(OCCC)C(NC(=O)c1cc(OC)c(OC)c(OC)c1)c1ccccc1 (configuration not stated)
**Result** 40.9

**Query** Endpoint output: Activity of CCOP(=O)(OCC)C(NC(=O)/C=C/c1ccccc1)c1ccccc1 (configuration not stated) . Value?
**Result** 32.3

====

- Test system: Tobacco mosaic virus
- method_summary: Antiviral activity against Tobacco mosaic virus (TMV) pre-treated with 250 ug/mL compound for 30 min followed by inoculation on left side of Nicotiana tabacum leaves assessed as virus inactivation effect measured 3 to 4 days post viral infection
- Format: functional
// Activity lookup, one value per entry
Hi! Could you send only the number? It should be in %, unit omitted.

Please review the following examples before continuing.
- CCOP(=O)(OCC)C(NC(=O)c1ccccc1Cl)c1ccccc1 (centres undefined): 82.2
- CCOP(=O)(OCC)C(NC(=O)/C=C/c1ccccc1)c1ccccc1 (centres undefined): 79.9
- CCCOP(=O)(OCCC)C(NC(=O)c1ccccc1C(F)(F)F)c1ccccc1 (centres undefined): 60
- CCCOP(=O)(OCCC)C(NC(=O)c1cc(OC)c(OC)c(OC)c1)c1ccccc1 (centres undefined): 61
- CCOP(=O)(OCC)C(NC(=O)c1ccccc1F)c1ccccc1 (centres undefined): 70.9

**Query** Activity lookup needed for CCCOP(=O)(OCCC)C(NC(=O)c1cccc(F)c1)c1ccccc1 (centres undefined) , thanks.
**Result** 65

**Query** Fill blank: measured Activity of the molecule CNCC(=O)N[C@@H](CO)C(=O)N[C@H]1[C@H](O)[C@@H](O)[C@H](n2ccc(N)nc2=O)O[C@@H]1C(N)=O is ____.
**Result** 100

**Query** What Activity value was documented for this molecule, CCOP(=O)(OCC)C(NC(=O)c1ccc(F)cc1)c1ccccc1 (centres undefined) ?
**Result** 100

**Query** Look up Activity: CCCOP(=O)(OCCC)C(NC(=O)c1ccccc1)c1ccccc1 (centres undefined)
**Result** 51

====

- Tested on: Tobacco mosaic virus
- method_summary: Antiviral activity against Tobacco mosaic virus (TMV) pre-treated with 125 ug/mL compound for 30 min followed by inoculation on left side of Nicotiana tabacum leaves assessed as virus inactivation effect measured 3 to 4 days post viral infection
- Assay type: functional
Here the recorded Activity is given for each entry.
Returns: string containing the number followed by the unit.

- CCCOP(=O)(OCCC)C(NC(=O)c1cc(OC)c(OC)c(OC)c1)c1ccccc1 (stereo not given): 30.3%

Here is another compound to look at.
**Query** Reported Activity, compound CCCOP(=O)(OCCC)C(NC(=O)c1ccccc1)c1ccccc1 (stereo not given) : ____
**Result** 23%

====

Activity values, listed per item
- Test system: Tobacco mosaic virus
- method_summary: Antiviral activity against Tobacco mosaic virus (TMV) inoculated on whole Nicotiana tabacum leaves followed by smearing with 250 ug/mL compound solution on left side of leaves assessed as viral infection curative effect measured 3 to 4 days post viral infection
- Assay type: functional
Express your answer in %, writing the number without its unit.

Recorded Activity, per entry:
* CCCOP(=O)(OCCC)C(NC(=O)c1ccccc1C(F)(F)F)c1ccccc1 (configuration not stated) | 38
* CCCOP(=O)(OCCC)C(NC(=O)c1cc(OC)c(OC)c(OC)c1)c1ccccc1 (configuration not stated) | 50.6
* CCOP(=O)(OCC)C(NC(=O)/C=C/c1ccccc1)c1ccccc1 (configuration not stated) | 39.9
* CCCOP(=O)(OCCC)C(NC(=O)c1cccc(F)c1)c1ccccc1 (configuration not stated) | 21
* CCOP(=O)(OCC)C(NC(=O)c1ccccc1F)c1ccccc1 (configuration not stated) | 49

**Query** For the record CCCOP(=O)(OCCC)C(NC(=O)c1ccccc1)c1ccccc1 (configuration not stated) , what value of Activity is listed for Tobacco mosaic virus?
**Result** 23.9

**Query** Tell me reported Activity for CNCC(=O)N[C@@H](CO)C(=O)N[C@H]1[C@H](O)[C@@H](O)[C@H](n2ccc(N)nc2=O)O[C@@H]1C(N)=O [NINGNANMYCIN] , tested with Tobacco mosaic virus.
**Result** 51

====

- Tested on: Tobacco mosaic virus
- method_summary: Antiviral activity against Tobacco mosaic virus (TMV) pre-treated with 125 ug/mL compound for 30 min followed by inoculation on left side of Nicotiana tabacum leaves assessed as virus inactivation effect measured 3 to 4 days post viral infection
- Assay type: functional
readout_label: Activity (%)
Dear colleague, please return just the value in %, with no unit written.

* CCOP(=O)(OCC)C(NC(=O)c1ccccc1F)c1ccccc1 (stereo not drawn) | 47.2
* CCCOP(=O)(OCCC)C(NC(=O)c1ccccc1C(F)(F)F)c1ccccc1 (stereo not drawn) | 39.2

Continue with the molecule presented below.
**Query** So what's the measured Activity for this one? CNCC(=O)N[C@@H](CO)C(=O)N[C@H]1[C@H](O)[C@@H](O)[C@H](n2ccc(N)nc2=O)O[C@@H]1C(N)=O
**Result** 78.4

Source listed as ChEMBL document CHEMBL3046095.
